- Test system: OVCAR-3
- Experimental Protocol: Cell growth inhibition, resazurin, 48 h
- Assay type: cell-based, human
- Condition Description: OVCAR-3, 48 h drug exposure
Measurement Type: pEC50
Please note pEC50 is a logarithmic value: minus log10 of concentration in mol/L. Answer with that number alone.

[Q] Given the molecule C[C@@]12OC(=O)[C@]1([C@@H](O)[C@@H]1C=CCCC1)NC(=O)[C@@H]2CCCl [Formula II-16, Salinosporamide A] , write its reported pEC50.
[A] 7.31

[Q] Given the molecule `C[C@@]12OC(=O)[C@]1([C@@H](O)[C@H]1CCC[C@H]3O[C@@H]13)NC(=O)[C@@H]2CCCl` , write its reported pEC50.
[A] 7.19

[Q] Given the molecule `C[C@@]12OC(=O)[C@]1([C@@H](O)[C@@H]1C=CCCC1)NC(=O)[C@@H]2CCI` , write its reported pEC50.
[A] 7.70

###

- Tested On: trypsin-like activity of rabbit muscle 20S proteasome (Oryctolagus cuniculus)
- Construct: EC50 Trypsin-like; other: purified rabbit 20S proteasome, Boc-LRR-AMC; other: under the conditions tested
- Sequence (G1SWK8 1-271): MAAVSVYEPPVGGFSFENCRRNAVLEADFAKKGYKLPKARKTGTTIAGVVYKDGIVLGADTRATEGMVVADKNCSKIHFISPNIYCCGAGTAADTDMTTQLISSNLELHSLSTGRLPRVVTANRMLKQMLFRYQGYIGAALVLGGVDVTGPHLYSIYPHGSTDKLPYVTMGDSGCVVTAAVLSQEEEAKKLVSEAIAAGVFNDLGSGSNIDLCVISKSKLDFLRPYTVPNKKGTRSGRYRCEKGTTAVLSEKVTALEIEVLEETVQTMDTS
- Experimental Protocol: In vitro inhibition of 20S proteasome, Boc-LRR-AMC
- Assay type: biochemical
- Condition Description: purified rabbit 20S proteasome, Boc-LRR-AMC; listed as II-20
Measurement Type: EC50 (µM)
Use µM as the unit, but write only the number.

[Q] Given the compound `C[C@H]1C(=O)N[C@@]2([C@@H](O)[C@@H]3C=CCCC3)C(=O)O[C@@]12C` , write its reported EC50.
[A] 0.321

###

- Tested on: CCD-27sk
- Experimental Protocol: Cytotoxic activity, 48 h, normal fibroblasts
- Type: cell-based
- Condition Description: CCD-27sk normal human fibroblasts
Measurement Type: pEC50
Please note pEC50 is a logarithmic value: minus log10 of concentration in mol/L. Answer with that number alone.

[Q] Using CCD-27sk as the test system, report measured pEC50 of C[C@@]12OC(=O)[C@]1([C@@H](O)[C@@H]1C=CCCC1)NC(=O)[C@@H]2CCCl [Formula II-16, Salinosporamide A] .
[A] 6.71

###

- Test system: HL-60/MX2
- Experimental Protocol: Cell growth inhibition, resazurin, 48 h
- Condition Description: Homo sapiens, HL60/MX2, 48 h, HL-60/MX2, 48 h drug exposure
Please go through the items and note down their pEC50.
Please note pEC50 is a logarithmic value: minus log10 of concentration in mol/L. Answer with that number alone.

[Q] Given the molecule C[C@@]12OC(=O)[C@]1([C@@H](O)C1CCCCC1)NC(=O)[C@@H]2CCBr [Formula II-4] , write its reported pEC50.
[A] 7.01

[Q] Given the molecule C[C@@]12OC(=O)[C@]1([C@@H](O)[C@@H]1C=CCCC1)NC(=O)[C@@H]2CCCl [Formula II-16, Salinosporamide A] , write its reported pEC50.
[A] 7.55

[Q] Given the molecule O=C1c2c(O)ccc(O)c2C(=O)c2c(NCCNCCO)ccc(NCCNCCO)c21 [Mitoxantrone, reference compound] , write its reported pEC50.
[A] 5.85

[Q] Given the molecule C[C@@]12OC(=O)[C@]1([C@@H](O)[C@@H]1C=CCCC1)NC(=O)[C@@H]2CCBr [Formula II-18] , write its reported pEC50.
[A] 7.72

###

- Test system: RPMI 8226
- Experimental Protocol: Cell growth inhibition, resazurin, 48 h
- Condition Description: Homo sapiens, RPMI-8226, read-out: 1% FBS, EC50, Mean, RPMI 8226, media containing 1% FBS, mean of two
- Method: RPMI 8226 (CCL-155), HT-29 (HTB-38), and B16-F10 (CRL-6475) cells were purchased from ATCC. RPMI 8226 cells were maintained in RPMI 1640 media supplemented with 10% (v/v) FBS, 2 mM L-glutamine, 1 mM sodium pyruvate and Penicillin/Streptomycin at 100 IU/ml and 100 μg/ml, respectively. […]
Measurement Type: EC50 (nM)
Use nM as the unit, but write only the number.

[Q] Given the molecule `C[C@@]12OC(=O)[C@]1([C@@H](O)[C@@H]1C=CCCC1)NC(=O)[C@@H]2CCBr` , write its reported EC50.
[A] 14

###

- Tested On: UniProt:G1T4Q9
- Sequence (G1T4Q9 1-263): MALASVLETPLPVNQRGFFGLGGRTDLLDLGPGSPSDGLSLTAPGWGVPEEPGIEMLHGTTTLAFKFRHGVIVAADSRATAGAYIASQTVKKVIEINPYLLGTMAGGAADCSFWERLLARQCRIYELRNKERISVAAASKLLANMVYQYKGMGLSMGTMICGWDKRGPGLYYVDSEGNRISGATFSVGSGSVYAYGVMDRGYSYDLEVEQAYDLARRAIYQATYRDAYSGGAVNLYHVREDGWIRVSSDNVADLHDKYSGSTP
- Experimental Protocol: In vitro inhibition of 20S proteasome, suc-LLVY-AMC
- Condition Description: read-out: EC50 Chymotrypsin-like; purified rabbit 20S proteasome, suc-LLVY-AMC
Measurement Type: EC50 (nM)
Use nM as the unit, but write only the number.

[Q] Given the compound C[C@H]1C(=O)N[C@@]2([C@@H](O)[C@@H]3C=CCCC3)C(=O)O[C@@]12C [Formula II-20] , write its reported EC50.
[A] 7.7

[Q] Given the compound C[C@@]12OC(=O)[C@]1([C@@H](O)[C@H]1CCC[C@@H]3O[C@H]13)NC(=O)[C@@H]2CCCl [Formula II-5B] , write its reported EC50.
[A] 85

[Q] Given the compound C[C@@]12OC(=O)[C@]1([C@@H](O)[C@H]1CCC[C@H]3O[C@@H]13)NC(=O)[C@@H]2CCCl [Formula II-5A] , write its reported EC50.
[A] 7

[Q] Given the compound CC[C@@]12OC(=O)[C@]1([C@@H](O)[C@@H]1C=CCCC1)NC(=O)[C@@H]2CCCl [Formula II-24C] , write its reported EC50.
[A] 2200

###

- Test system: OVCAR-3
- Experimental Protocol: Cell growth inhibition, resazurin, 48 h
- Assay type: cell-based, human
- Condition Description: Homo sapiens, OVCAR-3, 48 h, OVCAR-3, 48 h drug exposure
Measurement Type: pEC50
Please note pEC50 is a logarithmic value: minus log10 of concentration in mol/L. Answer with that number alone.

[Q] Given the compound `C[C@@]12OC(=O)[C@]1([C@@H](O)[C@H]1CCC[C@@H]3O[C@H]13)NC(=O)[C@@H]2CCCl` , write its reported pEC50.
[A] 5.88

[Q] Given the compound `C[C@@]12OC(=O)[C@]1([C@@H](O)[C@@H]1C=CCCC1)NC(=O)[C@@H]2CCI` , write its reported pEC50.
[A] 7.62

[Q] Given the compound `C[C@@]12OC(=O)[C@]1([C@@H](O)[C@H]1CCC[C@H]3O[C@@H]13)NC(=O)[C@@H]2CCCl` , write its reported pEC50.
[A] 7.10

[Q] Given the compound C[C@@]12OC(=O)[C@]1([C@@H](O)[C@@H]1C=CCCC1)NC(=O)[C@@H]2CCCl [Formula II-16, Salinosporamide A] , write its reported pEC50.
[A] 7.16

###

- Test system: NF-κB-mediated luciferase activity in HEK293 NF-κB/Luc cells
- Experimental Protocol: NF-κB-mediated luciferase reporter gene assay
- Type: cell-based, human
- Condition Description: Homo sapiens, HEK293, 1 h pretreatment, 6 h TNF-α stimulation; read-out: EC50
Measurement Type: EC50

[Q] Given the compound C[C@@]12OC(=O)[C@]1([C@H](O)[C@@H]1C=CCCC1)NC(=O)[C@@H]2CCCl [Formula II-25] , write its reported EC50.
[A] > 20 µM

[Q] Given the compound C[C@@]12OC(=O)[C@]1([C@@H](O)[C@H]1CCC[C@H](Cl)[C@H]1O)NC(=O)[C@@H]2CCCl [Formula IV-3C] , write its reported EC50.
[A] > 20 µM

[Q] Given the compound C[C@@]12OC(=O)[C@]1([C@@H](O)[C@@H]1C=CCCC1)NC(=O)[C@@H]2CCCl [Formula II-16, Salinosporamide A] , write its reported EC50.
[A] ~0.007 µM
